Assay: In vivo pharmacokinetics in male C57BL/6 mice
Set-up: species or system mouse
Conditions: male, C57BL/6, mouse, plasma, po, 9.92 mg/kg, 9.92 mg/kg p.o., individual animals M13-M15, read-out: MRT0-inf
quantity-measured: MRT inf
Note to self: number, then unit, no commentary.

Value lookup for MRT inf; key = "[2H]C([2H])(c1c[nH]c2ccccc12)[C@H]1CCCN1C([2H])([2H])[2H]"
8.91 h

* * *

Test: In vivo pharmacokinetics in male C57BL/6 mice
Design: species or system mouse
Conditions: male, C57BL/6, mouse, plasma, po, 9.92 mg/kg, 9.92 mg/kg p.o., Mean ± SD, read-out: tmax
quantity-measured: tmax (min)
Quick note: give the figure in min, leave out the unit.

Value lookup for tmax; key = "[2H]C([2H])(c1c[nH]c2ccccc12)[C@H]1CCCN1C([2H])([2H])[2H]"
15

* * *

Assay: In vivo pharmacokinetics in male C57BL/6 mice
Parameters: species or system mouse
Conditions: male, C57BL/6, mouse, plasma, po, 9.92 mg/kg, 9.92 mg/kg p.o., Mean ± SD, read-out: Cmax
quantity-measured: Cmax
Note to self: number, then unit, no commentary.

Value lookup for Cmax; key = "[2H]C([2H])(c1c[nH]c2ccccc12)[C@H]1CCCN1C([2H])([2H])[2H]"
389 ng/mL

* * *

Experiment: Liver microsomes stability with NADPH, rat
Conditions: rat liver microsomes, with NADPH, 2 μM
Rule: Remaining Percentage (%) after 60 min Rat of 20% or more gives MET; anything lower gives NOT MET.

>  <compound>
COc1ccc2[nH]cc(CCN(C)C)c2c1 [Compound 5-MeO-DMT, 5-methoxy-N,N-dimethyltryptamine, reference compound]

>  <group>
NOT MET

$$$$
>  <compound>
[2H]C([2H])(c1c[nH]c2ccccc12)[C@H]1CCCN1C

>  <group>
NOT MET

$$$$

Check this compound for Remaining Percentage (%) after 60 min Rat at or above 20%: CN(C)CCc1c[nH]c2ccccc12 [DMT, N,N-dimethyltryptamine, reference compound]
NOT MET

Thanks! And "[2H]C([2H])(c1c[nH]c2ccccc12)[C@H]1CCCN1C([2H])([2H])[2H]" ?
MET

Thanks! And "[2H]C([2H])([2H])Oc1ccc2[nH]cc(C([2H])([2H])[C@H]3CCCN3C([2H])([2H])[2H])c2c1" ?
MET

* * *

Test: In vivo pharmacokinetics in male C57BL/6 mice
Parameters: species or system mouse
Settings: male, C57BL/6, mouse, plasma, iv, 9.92 mg/kg, 9.92 mg/kg i.v., Mean ± SD, read-out: AUC0-inf
quantity-measured: AUC(0-inf) (ng·h/mL)
Quick note: give the figure in ng·h/mL, leave out the unit.

Value lookup for AUC(0-inf); key = [2H]C([2H])(c1c[nH]c2ccccc12)[C@H]1CCCN1C([2H])([2H])[2H] [I-B-1]
4000

* * *

Assay: In vivo pharmacokinetics in male Sprague Dawley rats
Parameters: species or system rat
Conditions: male, Sprague Dawley, rat, plasma, sc, 0.992 mg/kg, 0.992 mg/kg s.c., individual animals, read-out: AUC0-inf
Excerpt: Example 13 (I-B-1): In Vivo Assessment of the Pharmacokinetics in Mice and Rats 5. PK Analysis • i. Analysis software: Phoenix® WinNonlin® 8.2 (Pharsight, Certara, Mountainview, CA) • ii. Analysis methods: non-compartmental analysis, linear up/log down trapezoidal rule • iii. PK parameters: C0, t1/2, AUC0-tlast. AUC0-∞, CL, Vss, MRT, tmax(po), Cmax(po), F, as appropriate
quantity-measured: AUC(0-inf) (ng·h/mL)
Quick note: give the figure in ng·h/mL, leave out the unit.

Value lookup for AUC(0-inf); key = [2H]C([2H])(c1c[nH]c2ccccc12)[C@H]1CCCN1C([2H])([2H])[2H] [I-B-1]
141

The reported numbers originate from patent US20240166630A1.
